Data origin, for the record: PubChem BioAssay (Tox21)

# run_description: A CellTox Green Cytotoxicity Assay to monitor cytotoxicity in HepG2 cells - 40 hour (AID 1224879); further: nearly all actives have a fitted effect of over 40% in size
# condition_description: CellTox Green fluorescence; series mostly up to 76.8 µM
Inconclusive results are not listed. Active and inactive are the calls of the source. The call rests on the fitted dose curve; in most records, active means well fitted activation curve with a large enough effect in the repeat runs; inconclusive means weak or mixed curves; inactive means flat fitted curve, though single readings scatter.
Classes to choose from: active, inactive

[[record]]
molecule = "COc1cccc(OC)c1C(=O)O"
assigned_class = "inactive"

[[record]]
molecule = "O=[N+]([O-])c1cccc(C(F)(F)F)c1"
assigned_class = "inactive"

[[record]]
molecule = "CC(=O)CC(=O)Nc1ccc(S(=O)(=O)O)cc1"
assigned_class = "inactive"


Could you kindly confirm the outcome this assay logged for Cc1cc(C(C#N)c2ccc(Cl)cc2)c(Cl)cc1NC(=O)c1cc(I)cc(I)c1O (configuration not stated) ?
inactive
